The reported measurements were obtained from patent US20250163057A1.

# pIC50 values compiled below
System: Cullin-3 (CUL3) neddylation
Assay: AlphaLISA assay for Cullin-3 (CUL3) neddylation in TF 1 cells
Type: cell-based
Details: Homo sapiens, TF-1, 3 h, 3 hours treatment
pIC50: −log10 of the molar value.

The cases that follow already have their pIC50 on record.
CCN1C(=O)[C@@H](NC(=O)c2cccc(C(F)(F)F)c2)[C@@H](c2ccc(F)cc2)c2c(C(=O)N3CCC[C@H]3C#N)nn(-c3cccc(OCCCN4CCN(C5COC5)CC4)c3)c21 [Compound I-337]; ≥ 7.00
CCN1C(=O)[C@H](NC(=O)c2cccc(C(F)(F)F)c2)C(C2CC2)c2c(C(=O)N3CCC[C@H]3C#N)nn(-c3ccccc3)c21 (some centres unmarked) [Compound I-642]; < 6.00

# pIC50 lookup, item CCN1C(=O)[C@@](C)(NC(=O)c2cccc(C(F)(F)F)c2)[C@@H](C2CC2)c2c(C(=O)N3[C@H](C#N)C[C@H]4C[C@H]43)nn(C3CCOCC3)c21 [Compound I-516] ≥ 7.00

I would be grateful if you could share the reported pIC50 for CCN1C(=O)[C@H](NC(=O)c2cccc(C(F)(F)F)c2)[C@@H](c2ccc(F)cc2)c2c(COCC#N)nn(-c3ccccc3)c21 [Compound I-522] . < 6.00

* * *

Molecular target: DCN1 (DCUND1) protein PONY domain (Homo sapiens (Human), UniProt Q96GG9)
Sequence (Q96GG9 60-248): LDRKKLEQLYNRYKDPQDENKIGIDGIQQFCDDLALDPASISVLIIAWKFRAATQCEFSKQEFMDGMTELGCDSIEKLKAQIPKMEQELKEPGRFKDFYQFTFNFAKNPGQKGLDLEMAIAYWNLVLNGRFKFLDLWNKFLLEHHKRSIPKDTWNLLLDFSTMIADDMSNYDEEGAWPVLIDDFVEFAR
Test: TR-FRET assay, DCN1 binding with FAM-labeled probe
Details: read-out: TR FRET IC50 1 hr; 1 hr after treatment with compound
Measured IC50 accompanies every entry in the list below.

Please review the following examples before continuing.
CCN1C(=O)[C@@H](NC(=O)c2cccc(C(F)(F)F)c2)[C@@H](c2ccc(F)cc2)c2c(NC(=O)C3=CCC3)nn(-c3ccccc3)c21 (racemic); ≤ 200 nM
C=C(CN1CCOCC1)C(=O)NCc1nn(-c2ccccc2)c2c1[C@@H](c1ccc(F)cc1)[C@H](NC(=O)c1cccc(C(F)(F)F)c1)C(=O)N2CC (racemic); ≤ 200 nM
CCN1C(=O)[C@@H](NC(=O)c2cccc(C(F)(F)F)c2)[C@@H](c2ccc(F)cc2)c2c(C(=O)N(CC#N)C3CC3)nn(C3CCOCC3)c21; ≤ 200 nM
CCN1C(=O)[C@@H](NC(=O)c2cccc(C(F)(F)F)c2)[C@@H](c2ccc(F)cc2)c2c(C(=O)N3CCN(C4COC4)CC3C#N)nn(-c3ccccc3)c21 (some centres unmarked); ≤ 200 nM
CCN1C(=O)[C@@H](NC(=O)c2cccc(C(F)(F)F)c2)[C@@H](c2ccc(F)cc2)c2c(C(=O)N3CCC[C@H]3C#N)nn(-c3cccc(OCCN4CCC5(CC4)COC5)c3)c21; ≤ 200 nM
C=C(CN1CCC(F)(F)C1)C(=O)NCc1nn(-c2ccccc2)c2c1[C@H](c1ccc(F)cc1)[C@@H](NC(=O)c1cccc(C(F)(F)F)c1)C(=O)N2CC (racemic); ≤ 200 nM
CCN1C(=O)[C@@H](NC(=O)c2cccc(C(F)(F)F)c2)[C@@H](c2ccc(F)cc2)c2c(NS(=O)(=O)CCl)nn(-c3ccccc3)c21 (racemic); ≤ 200 nM
CCN1C(=O)[C@@H](NC(=O)c2cccc(C(F)(F)F)c2)[C@@H](C2CC2)c2c(C(=O)N3CS(=O)(=O)C[C@H]3C#N)nn(C3CCOCC3)c21; ≤ 200 nM

What value of IC50 has been reported for the following compound? CCN1C(=O)[C@@H](NC(=O)c2cccc(C(F)(F)F)c2)C(c2ccc(F)cc2)c2c(C(=O)N(CC#N)C3COC3)nn(-c3ccccc3)c21 (mixture of isomers) ≤ 200 nM

What value of IC50 has been reported for the following compound? CCN1C(=O)[C@@H](NC(=O)c2cccc(C(F)(F)F)c2)[C@@H](c2ccc(F)cc2)c2c(C(=O)N(C)[C@@H](C#N)C3COC3)nn(-c3ccccc3)c21 (single isomer, unassigned) ≤ 200 nM

// lookup IC50 for CCN1C(=O)[C@@H](NC(=O)c2cccc(C(F)(F)F)c2)[C@@H](c2ccc(F)cc2)c2c(C(=O)N(CC#N)CCN(C)C)nn(-c3ccccc3)c21 (racemic) ≤ 200 nM
